Reference source for all entries: patent US20260207767A1

Molecular target: T1, human PD-1 expressed on cells (human, UniProt Q15116 25-288)
T1 construct: whole, on cells; cell line named under assay; also called CHO-S hPD-1; Raji PD-1
T1 sequence (Q15116 25-288): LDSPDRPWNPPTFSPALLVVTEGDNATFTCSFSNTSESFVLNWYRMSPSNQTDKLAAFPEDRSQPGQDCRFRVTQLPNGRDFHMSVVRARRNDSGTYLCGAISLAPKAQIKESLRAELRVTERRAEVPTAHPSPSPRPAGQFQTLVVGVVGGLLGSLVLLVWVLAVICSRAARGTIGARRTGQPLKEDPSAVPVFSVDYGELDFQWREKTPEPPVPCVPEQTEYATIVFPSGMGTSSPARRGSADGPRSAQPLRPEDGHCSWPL
Test: flow cytometry, CHO-S hPD-1
readoutLabel: Max MFI (MFI)
Please give a number only; it is taken to be in MFI.

Q: Name the recorded Max MFI for XVT458-z2-m3 (antibody, V domains shown, IgG format; also called z2_XVT458m3) VH: QVQLVQSGAEVKKPGASVKVSCKASGYTFTNFYIHWVRQAPGQGLEWMGRIYPNYGITAYNQKFKDRVTMTVDTSTSTAYMELRSLRSDDTAVYYCARGYSYAMDYWGQGTTVTVSS VL: DIQMTQSPSSVSASVGDRVTITCSASQGISGDLNWYQQKPGKAPKLLIYHTSQRHSDVPSRFSGSGSGTDFTLTISSLQPEDFATYYCQGYSKDLLTFGGGTKLEIK .
Ans: 41100

Q: Please answer likewise for XVT458-z2-m6 (antibody, V domains shown, IgG format; also called z2_XVT458m6) VH: QVQLVQSGAEVKKPGASVKVSCKASGYTFTNFYIHWVRQAPGQGLEWMGSIYPNYGITAYNQKFKDRVTMTVDTSTSTAYMELRSLRSDDTAVYYCARGYSYAMDYWGQGTTVTVSS VL: DIQMTQSPSSVSASVGDRVTITCSASQGISGDLNWYQQKPGKAPKLLIYHTSQLHSDVPSRFSGSGSGTDFTLTISSLQPEDFATYYCQGYSKDLLTFGGGTKLEIK
Ans: 39500

Q: Likewise for XVT458-z2-m5 (antibody, V domains shown, IgG format; also called z2_XVT458m5) VH: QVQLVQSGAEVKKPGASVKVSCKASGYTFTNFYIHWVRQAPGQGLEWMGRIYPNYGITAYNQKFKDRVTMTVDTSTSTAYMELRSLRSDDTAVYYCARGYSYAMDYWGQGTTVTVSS VL: DIQMTQSPSSVSASVGDRVTITCSASQGIYGDLNWYQQKPGKAPKLLIYHTSSRHSGVPSRFSGSGSGTDFTLTISSLQPEDFATYYCQAYSKDLLTFGGGTKLEIK ?
Ans: 42400

Q: Same again, this time with XVT458-z2-m1 (antibody, V domains shown, IgG format; also called z2-XVT458-m1; z2_XVT458m1) VH: QVQLVQSGAEVKKPGASVKVSCKASGYTFTNFYIHWVRQAPGQGLEWMGSIYPNYGFTAYNQKFKDRVTMTVDTSTSTAYMELRSLRSDDTAVYYCARGYSYAMDYWGQGTTVTVSS VL: DIQMTQSPSSVSASVGDRVTITCSASQGIWGDLNWYQQKPGKAPKLLIYHTSQLHSDVPSRFSGSGSGTDFTLTISSLQPEDFATYYCQGYSKDLLTFGGGTKLEIK
Ans: 41000
